System: Escherichia coli TOP10
Assay: shrunken log2 fold change of peptide-encoding DNA abundance (4.5 h post-induction vs induction); higher = less antimicrobial activity (less host growth inhibition)
Details: time post-induction: 4.5 h; library: site-saturation at positions 5, 18, 19, 20
So basically: shrunken log2 fold change at -0.08 or higher? That is yes (1). Lower than -0.08? That is no (0).

shrunken log2 fold change >= -0.08 for `RRIRCRPPRLPRPRPRPHCAPRP` ?
no (0)

shrunken log2 fold change >= -0.08 for `RRIRERPPRLPRPRPRPQSGPRP` ?
yes (1)

shrunken log2 fold change >= -0.08 for `RRIRGRPPRLPRPRPRPWPQPRP` ?
yes (1)

shrunken log2 fold change >= -0.08 for `RRIRDRPPRLPRPRPRPASKPRP` ?
yes (1)

* * *

Test system: Escherichia coli TOP10
Assay: shrunken log2 fold change of peptide-encoding DNA abundance (4.5 h post-induction vs induction); higher = less antimicrobial activity (less host growth inhibition)
Settings: time post-induction: 4.5 h; library: site-saturation at positions 5, 18, 19, 20
Observable: shrunken log2 fold change
Provide a numeric answer; units are not to be included.

// recorded shrunken log2 fold change for `RRIRWRPPRLPRPRPRPTRTPRP` : 0.83

// recorded shrunken log2 fold change for `RRIRIRPPRLPRPRPRPHSLPRP` : 0.0644

// recorded shrunken log2 fold change for `RRIRCRPPRLPRPRPRPRQSPRP` : 0.139

// recorded shrunken log2 fold change for `RRIRKRPPRLPRPRPRPVCDPRP` : 0.683

* * *

System: Escherichia coli TOP10
Experiment: shrunken log2 fold change of peptide-encoding DNA abundance (4.5 h post-induction vs induction); higher = less antimicrobial activity (less host growth inhibition)
Details: time post-induction: 4.5 h; library: site-saturation at positions 5, 18, 19, 20
So basically: shrunken log2 fold change at -0.09 or higher? That is Yes. Lower than -0.09? That is No.

shrunken log2 fold change >= -0.09 for `RRIRGRPPRLPRPRPRPCSCPRP` ?
Yes

shrunken log2 fold change >= -0.09 for `RRIRFRPPRLPRPRPRPLNMPRP` ?
No

shrunken log2 fold change >= -0.09 for `RRIRIRPPRLPRPRPRPLGYPRP` ?
No

shrunken log2 fold change >= -0.09 for `RRIRCRPPRLPRPRPRPRQLPRP` ?
Yes

shrunken log2 fold change >= -0.09 for `RRIRMRPPRLPRPRPRPLDKPRP` ?
Yes

shrunken log2 fold change >= -0.09 for `RRIRRRPPRLPRPRPRPISIPRP` ?
Yes

shrunken log2 fold change >= -0.09 for `RRIRWRPPRLPRPRPRPAQLPRP` ?
Yes

shrunken log2 fold change >= -0.09 for `RRIRYRPPRLPRPRPRPQIGPRP` ?
Yes

shrunken log2 fold change >= -0.09 for `RRIRKRPPRLPRPRPRPWWAPRP` ?
No

shrunken log2 fold change >= -0.09 for `RRIRLRPPRLPRPRPRPVCTPRP` ?
Yes

shrunken log2 fold change >= -0.09 for `RRIRRRPPRLPRPRPRPGIRPRP` ?
Yes

shrunken log2 fold change >= -0.09 for `RRIRLRPPRLPRPRPRPREEPRP` ?
Yes

shrunken log2 fold change >= -0.09 for `RRIRTRPPRLPRPRPRPQRDPRP` ?
Yes

shrunken log2 fold change >= -0.09 for `RRIRIRPPRLPRPRPRPATKPRP` ?
No

shrunken log2 fold change >= -0.09 for `RRIRDRPPRLPRPRPRPHRHPRP` ?
Yes

shrunken log2 fold change >= -0.09 for `RRIRRRPPRLPRPRPRPQDYPRP` ?
No

shrunken log2 fold change >= -0.09 for `RRIRYRPPRLPRPRPRPYFLPRP` ?
No

shrunken log2 fold change >= -0.09 for `RRIRQRPPRLPRPRPRPEYPPRP` ?
No

shrunken log2 fold change >= -0.09 for `RRIRARPPRLPRPRPRPFATPRP` ?
Yes

shrunken log2 fold change >= -0.09 for `RRIRRRPPRLPRPRPRPLDFPRP` ?
Yes

shrunken log2 fold change >= -0.09 for `RRIRIRPPRLPRPRPRPIQHPRP` ?
No

shrunken log2 fold change >= -0.09 for `RRIRHRPPRLPRPRPRPFMYPRP` ?
No

shrunken log2 fold change >= -0.09 for `RRIRCRPPRLPRPRPRPGFIPRP` ?
Yes

shrunken log2 fold change >= -0.09 for `RRIRFRPPRLPRPRPRPPIRPRP` ?
Yes

shrunken log2 fold change >= -0.09 for `RRIRLRPPRLPRPRPRPLLSPRP` ?
No

shrunken log2 fold change >= -0.09 for `RRIRDRPPRLPRPRPRPFHKPRP` ?
Yes

shrunken log2 fold change >= -0.09 for `RRIRLRPPRLPRPRPRPGNSPRP` ?
Yes

shrunken log2 fold change >= -0.09 for `RRIRRRPPRLPRPRPRPGDQPRP` ?
Yes

shrunken log2 fold change >= -0.09 for `RRIRDRPPRLPRPRPRPLVCPRP` ?
Yes

shrunken log2 fold change >= -0.09 for `RRIRGRPPRLPRPRPRPTYKPRP` ?
Yes

shrunken log2 fold change >= -0.09 for `RRIRYRPPRLPRPRPRPNGAPRP` ?
Yes

shrunken log2 fold change >= -0.09 for `RRIRGRPPRLPRPRPRPEADPRP` ?
Yes

shrunken log2 fold change >= -0.09 for `RRIRMRPPRLPRPRPRPPRGPRP` ?
Yes

shrunken log2 fold change >= -0.09 for `RRIRVRPPRLPRPRPRPWMQPRP` ?
No

shrunken log2 fold change >= -0.09 for `RRIRSRPPRLPRPRPRPWYEPRP` ?
Yes

shrunken log2 fold change >= -0.09 for `RRIRYRPPRLPRPRPRPTSRPRP` ?
Yes

shrunken log2 fold change >= -0.09 for `RRIRNRPPRLPRPRPRPQNIPRP` ?
No

shrunken log2 fold change >= -0.09 for `RRIRSRPPRLPRPRPRPAMQPRP` ?
No

shrunken log2 fold change >= -0.09 for `RRIRLRPPRLPRPRPRPELCPRP` ?
Yes

shrunken log2 fold change >= -0.09 for `RRIRVRPPRLPRPRPRPCNYPRP` ?
No

shrunken log2 fold change >= -0.09 for `RRIRRRPPRLPRPRPRPQLWPRP` ?
Yes

shrunken log2 fold change >= -0.09 for `RRIRSRPPRLPRPRPRPKEHPRP` ?
Yes

shrunken log2 fold change >= -0.09 for `RRIRYRPPRLPRPRPRPFNSPRP` ?
No

shrunken log2 fold change >= -0.09 for `RRIRPRPPRLPRPRPRPLLKPRP` ?
Yes

shrunken log2 fold change >= -0.09 for `RRIRSRPPRLPRPRPRPAHEPRP` ?
Yes

shrunken log2 fold change >= -0.09 for `RRIRVRPPRLPRPRPRPCYPPRP` ?
No

shrunken log2 fold change >= -0.09 for `RRIRSRPPRLPRPRPRPNNMPRP` ?
No

shrunken log2 fold change >= -0.09 for `RRIRPRPPRLPRPRPRPDIAPRP` ?
Yes

shrunken log2 fold change >= -0.09 for `RRIRMRPPRLPRPRPRPATGPRP` ?
Yes

shrunken log2 fold change >= -0.09 for `RRIRDRPPRLPRPRPRPPPHPRP` ?
Yes

shrunken log2 fold change >= -0.09 for `RRIRHRPPRLPRPRPRPKYWPRP` ?
No

shrunken log2 fold change >= -0.09 for `RRIRKRPPRLPRPRPRPWGGPRP` ?
Yes

* * *

System: Escherichia coli TOP10;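 further: peptides expressed intracellularly from a pBAD plasmid library in pooled LB shake-flask culture, induced with 0.3% L-arabinose, DNA abundance read by NGS, three biological replicates, DESeq2 with apeglm shrinkage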
Assay: shrunken log2 fold change of peptide-encoding DNA abundance (4.5 h post-induction vs induction); higher = less antimicrobial activity (less host growth inhibition)
Settings: time post-induction: 4.5 h; library: site-saturation at positions 5, 18, 19, 20
Observable: shrunken log2 fold change
Provide a numeric answer; units are not to be included.

// recorded shrunken log2 fold change for `RRIRKRPPRLPRPRPRPQLRPRP` : 0.2

// recorded shrunken log2 fold change for `RRIRNRPPRLPRPRPRPNEAPRP` : -0.00931

// recorded shrunken log2 fold change for `RRIRARPPRLPRPRPRPYTVPRP` : -0.306

// recorded shrunken log2 fold change for `RRIRDRPPRLPRPRPRPSVPPRP` : -0.329

// recorded shrunken log2 fold change for `RRIRVRPPRLPRPRPRPKQHPRP` : -0.301

// recorded shrunken log2 fold change for `RRIRRRPPRLPRPRPRPIPWPRP` : 0.312

// recorded shrunken log2 fold change for `RRIRNRPPRLPRPRPRPEISPRP` : -0.126

// recorded shrunken log2 fold change for `RRIRGRPPRLPRPRPRPVMYPRP` : 0.237

// recorded shrunken log2 fold change for `RRIRPRPPRLPRPRPRPGMVPRP` : 0.268

// recorded shrunken log2 fold change for `RRIRERPPRLPRPRPRPWYPPRP` : -0.224

// recorded shrunken log2 fold change for `RRIRMRPPRLPRPRPRPVKPPRP` : 0.202

// recorded shrunken log2 fold change for `RRIRHRPPRLPRPRPRPERFPRP` : -0.0122

// recorded shrunken log2 fold change for `RRIRCRPPRLPRPRPRPHIPPRP` : -0.245

// recorded shrunken log2 fold change for `RRIRDRPPRLPRPRPRPPHPPRP` : 0.235

// recorded shrunken log2 fold change for `RRIRNRPPRLPRPRPRPVACPRP` : -0.0504

// recorded shrunken log2 fold change for `RRIRHRPPRLPRPRPRPYCYPRP` : -0.577

// recorded shrunken log2 fold change for `RRIRQRPPRLPRPRPRPVDEPRP` : -0.249

// recorded shrunken log2 fold change for `RRIRYRPPRLPRPRPRPYRWPRP` : -0.175

// recorded shrunken log2 fold change for `RRIRRRPPRLPRPRPRPHLLPRP` : -0.0838

// recorded shrunken log2 fold change for `RRIRQRPPRLPRPRPRPLGNPRP` : -0.263

// recorded shrunken log2 fold change for `RRIRCRPPRLPRPRPRPEYWPRP` : -0.0559

// recorded shrunken log2 fold change for `RRIRDRPPRLPRPRPRPKHSPRP` : -0.211

// recorded shrunken log2 fold change for `RRIRFRPPRLPRPRPRPLITPRP` : -0.503

// recorded shrunken log2 fold change for `RRIRTRPPRLPRPRPRPHFDPRP` : -0.385

// recorded shrunken log2 fold change for `RRIRSRPPRLPRPRPRPIVHPRP` : -0.2

// recorded shrunken log2 fold change for `RRIRWRPPRLPRPRPRPHEAPRP` : 0.273

// recorded shrunken log2 fold change for `RRIRLRPPRLPRPRPRPYVYPRP` : -0.706

// recorded shrunken log2 fold change for `RRIRFRPPRLPRPRPRPAGCPRP` : 0.229

// recorded shrunken log2 fold change for `RRIRLRPPRLPRPRPRPKLVPRP` : -0.0181

// recorded shrunken log2 fold change for `RRIRMRPPRLPRPRPRPVEEPRP` : 0.292

// recorded shrunken log2 fold change for `RRIRNRPPRLPRPRPRPADAPRP` : 0.261

// recorded shrunken log2 fold change for `RRIRVRPPRLPRPRPRPVHIPRP` : -0.174

// recorded shrunken log2 fold change for `RRIRFRPPRLPRPRPRPKVVPRP` : 0.291

// recorded shrunken log2 fold change for `RRIRMRPPRLPRPRPRPCMGPRP` : -0.28

// recorded shrunken log2 fold change for `RRIRFRPPRLPRPRPRPIIIPRP` : -0.579

// recorded shrunken log2 fold change for `RRIRFRPPRLPRPRPRPEWHPRP` : -0.28

// recorded shrunken log2 fold change for `RRIRWRPPRLPRPRPRPALVPRP` : 0.98

// recorded shrunken log2 fold change for `RRIRFRPPRLPRPRPRPQAHPRP` : -0.454

// recorded shrunken log2 fold change for `RRIRNRPPRLPRPRPRPDLYPRP` : -0.0459

// recorded shrunken log2 fold change for `RRIRIRPPRLPRPRPRPFETPRP` : -0.231

// recorded shrunken log2 fold change for `RRIRGRPPRLPRPRPRPGNIPRP` : -0.104

// recorded shrunken log2 fold change for `RRIRERPPRLPRPRPRPDDIPRP` : -0.793

// recorded shrunken log2 fold change for `RRIRLRPPRLPRPRPRPMATPRP` : -0.187

// recorded shrunken log2 fold change for `RRIRVRPPRLPRPRPRPFKIPRP` : -0.342

// recorded shrunken log2 fold change for `RRIRIRPPRLPRPRPRPSRQPRP` : -0.747

// recorded shrunken log2 fold change for `RRIRDRPPRLPRPRPRPMMGPRP` : 0.0397

// recorded shrunken log2 fold change for `RRIRFRPPRLPRPRPRPRDFPRP` : -0.141

// recorded shrunken log2 fold change for `RRIRCRPPRLPRPRPRPKERPRP` : 0.238

// recorded shrunken log2 fold change for `RRIRGRPPRLPRPRPRPRSSPRP` : 0.128

// recorded shrunken log2 fold change for `RRIRYRPPRLPRPRPRPNPGPRP` : -0.000104
